Species: Rattus norvegicus
assay details: Open TG-GATES - Regimen: Single
Type: toxicity, organism-based, Sprague-Dawley
Parameters: regimen Single, gender Male, age 6 weeks
study conditions: in vivo, po, 10 mg/kg, 3 h, tissue Blood, route gavage, dose level Low
measured parameter: RBC

Record excerpt, results attached:
> print(dat)
                                   compound  measured.parameter        observed
1  CC(C)OC(=O)C(C)(C)Oc1ccc(C(=O)c2ccc(Cl)cc2)cc1 [FENOFIBRATE]                 RBC    603 x10_4/ul
2  CC1=C(/C=C/C(C)=C/C=C/C(C)=C/CO)C(C)(C)CCC1                 RBC  606.4 x10_4/ul
3                CN(C)CCN(Cc1cccs1)c1ccccn1                 RBC  630.4 x10_4/ul

Please give the measured RBC for this compound: CN(C)CCCN1c2ccccc2CCc2ccccc21
644 x10_4/ul

----------
Species: Rattus norvegicus
assay details: Open TG-GATES - Regimen: Daily Repeat
Type: toxicity, organism-based, Sprague-Dawley
Set-up: regimen Daily Repeat, gender Male, age 6 weeks
study conditions: in vivo, po, 100 mg/kg, […], tissue Blood, route gavage, dose level Low, time 7 day
measured parameter: Mono (%)
Write the answer as a number in %, unit excluded.

molecule	unit text	Mono
COc1ccc2[nH]c([S+]([O-])Cc3ncc(C)c(OC)c3C)nc2c1 (stereo not given) [OMEPRAZOLE]	%	3.4
COC1=CC(=O)C[C@@H](C)[C@]12Oc1c(Cl)c(OC)cc(OC)c1C2=O [GRISEOFULVIN]	%	2.2

Request the reported Mono associated with CCOC(=O)CCC(=O)O[C@H]1[C@H](O[C@@H]2[C@@H](C)[C@H](O[C@H]3C[C@@](C)(OC)[C@@H](O)[C@H](C)O3)[C@@H](C)C(=O)O[C@H](CC)[C@@](C)(O)[C@H](O)[C@@H](C)C(=O)[C@H](C)C[C@@]2(C)O)O[C@H](C)C[C@@H]1N(C)C [ERYTHROMYCIN ETHYLSUCCINATE]
2.2

Repeat with CCOc1ccc(NC(=O)CC(C)O)cc1 (stereo not given) [BUCETIN]
2.8

Same thing, different molecule: NC(N)=Nc1nc(CSCCC(N)=NS(N)(=O)=O)cs1 [FAMOTIDINE]
2.8

----------
Organism: Rattus norvegicus
assay details: Open TG-GATES - Regimen: Single
Type: toxicity, organism-based, Sprague-Dawley
Set-up: regimen Single, gender Male, age 6 weeks
study conditions: in vivo, po, 30 mg/kg, 24 h, tissue Plasma, route gavage, dose level Middle
measured parameter: gamma-GTP (IU/L)
Give a bare numeral; the unit IU/L is implied.

Answered cases to consult:
> print(dat)
                     chemical.smiles  measured.parameter  observed
1         CN(C)CCN(Cc1cccs1)c1ccccn1           gamma-GTP       1.2
2  CN(C)CCCN1c2ccccc2CCc2ccc(Cl)cc21           gamma-GTP       1.2
3      CN(C)CCCN1c2ccccc2CCc2ccccc21           gamma-GTP         1

Which gamma-GTP reading was recorded for the compound CC1=C(/C=C/C(C)=C/C=C/C(C)=C/CO)C(C)(C)CCC1 ?
1.2
